tested target: human mGluR2 receptor (Homo sapiens (Human), UniProt Q14416)
Sequence (Q14416 19-872): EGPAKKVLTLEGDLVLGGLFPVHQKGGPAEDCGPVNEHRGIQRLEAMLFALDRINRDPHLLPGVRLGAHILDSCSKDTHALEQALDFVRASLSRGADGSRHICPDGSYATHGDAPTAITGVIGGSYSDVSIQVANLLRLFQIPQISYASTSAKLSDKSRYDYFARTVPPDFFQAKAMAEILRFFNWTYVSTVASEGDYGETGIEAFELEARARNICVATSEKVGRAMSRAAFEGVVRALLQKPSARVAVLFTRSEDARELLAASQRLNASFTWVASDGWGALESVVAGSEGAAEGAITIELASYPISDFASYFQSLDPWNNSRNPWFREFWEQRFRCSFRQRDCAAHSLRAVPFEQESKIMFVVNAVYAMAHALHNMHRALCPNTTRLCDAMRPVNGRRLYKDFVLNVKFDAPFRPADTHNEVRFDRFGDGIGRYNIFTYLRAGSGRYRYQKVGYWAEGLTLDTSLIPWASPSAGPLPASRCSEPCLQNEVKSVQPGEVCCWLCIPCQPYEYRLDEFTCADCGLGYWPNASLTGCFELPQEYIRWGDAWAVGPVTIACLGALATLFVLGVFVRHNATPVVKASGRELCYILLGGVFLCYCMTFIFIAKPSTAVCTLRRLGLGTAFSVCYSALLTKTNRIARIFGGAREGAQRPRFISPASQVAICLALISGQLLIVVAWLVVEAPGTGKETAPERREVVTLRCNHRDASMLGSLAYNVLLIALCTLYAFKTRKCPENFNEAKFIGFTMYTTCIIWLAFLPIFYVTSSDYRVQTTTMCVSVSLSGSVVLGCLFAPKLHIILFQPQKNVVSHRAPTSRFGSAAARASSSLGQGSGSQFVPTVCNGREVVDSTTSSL
procedure text: [35S]GTPγS binding assay (PAM assay)
Assay type: biochemical
condition label: membranes from CHO cells transfected with human mGluR2; in presence of glutamate at EC25 concentration; averages of duplicate values of 11-concentration response curves
quantity name: GTPgS - hR2 PAM pEC50

[
  {
    "smiles code": "O=c1c(C(F)(F)F)c(N2CCC(c3ccccc3)CC2)ccn1CC1CC1",
    "GTPgS - hR2 PAM pEC50": 6.45
  },
  {
    "smiles code": "O=c1c(Cl)c(N2CCC(CF)(c3ccccc3)CC2)ccn1CC1CC1",
    "GTPgS - hR2 PAM pEC50": 6.25
  },
  {
    "smiles code": "CC(C)Cn1ccc(N2CCC(c3ccccc3)CC2)c(Cl)c1=O",
    "GTPgS - hR2 PAM pEC50": 6.71
  },
  {
    "smiles code": "O=c1c(Cl)c(N2CCC(F)(c3ccccc3)CC2)ccn1CC1CC1",
    "GTPgS - hR2 PAM pEC50": 6.57
  },
  {
    "smiles code": "CC(C)CCn1ccc(N2CCC(F)(c3ccccc3)CC2)c(Cl)c1=O",
    "GTPgS - hR2 PAM pEC50": 6.58
  },
  {
    "smiles code": "O=c1c(Cl)c(N2CCC(c3ccccc3)CC2)ccn1CCC1CC1",
    "GTPgS - hR2 PAM pEC50": 6.88
  },
  {
    "smiles code": "CCCCn1ccc(N2CCC(c3ccc(C(C)(C)O)cc3)CC2)c(Cl)c1=O",
    "GTPgS - hR2 PAM pEC50": 6.46
  },
  {
    "smiles code": "CC(C)CCn1ccc(N2CCC(c3ccccc3)CC2)c(Cl)c1=O",
    "GTPgS - hR2 PAM pEC50": 7.20
  },
  {
    "smiles code": "O=c1c(Cl)c(N2CCC(c3ccccc3F)CC2)ccn1CC1CC1",
    "GTPgS - hR2 PAM pEC50": 7.03
  },
  {
    "smiles code": "O=c1c(Cl)c(N2CCC(c3ccccc3)CC2)ccn1Cc1ccc(OC(F)(F)F)cc1",
    "GTPgS - hR2 PAM pEC50": 6.90
  },
  {
    "smiles code": "CCCCn1ccc(N2CCC(c3ccc(C(C)(C)O)cc3F)CC2)c(Cl)c1=O",
    "GTPgS - hR2 PAM pEC50": 6.88
  },
  {
    "smiles code": "O=c1c(Cl)c(N2CCC(OCCF)(c3ccccc3)CC2)ccn1CC1CC1",
    "GTPgS - hR2 PAM pEC50": 6.91
  },
  {
    "smiles code": "O=c1c(Cl)c(N2CCC(F)(c3ccccc3)CC2)ccn1CCC1CC1",
    "GTPgS - hR2 PAM pEC50": 6.41
  },
  {
    "smiles code": "O=c1c(Cl)c(N2CCC(c3cccc(C(F)(F)F)c3)CC2)ccn1CC1CC1",
    "GTPgS - hR2 PAM pEC50": 7.12
  },
  {
    "smiles code": "CCCCn1ccc(N2CCC(c3ccc(F)cc3F)CC2)c(Cl)c1=O",
    "GTPgS - hR2 PAM pEC50": 6.83
  },
  {
    "smiles code": "O=c1c(Cl)c(N2CCC(c3ccc(N4CCOCC4)cc3)CC2)ccn1CC1CC1",
    "GTPgS - hR2 PAM pEC50": 6.64
  },
  {
    "smiles code": "CCCCn1ccc(N2CCC(CO)(c3ccccc3)CC2)c(Cl)c1=O",
    "GTPgS - hR2 PAM pEC50": 6.05
  },
  {
    "smiles code": "O=c1c(C2CC2)c(N2CCC(c3ccccc3)CC2)ccn1CC1CC1",
    "GTPgS - hR2 PAM pEC50": 6.04
  },
  {
    "smiles code": "CCCCn1ccc(N2CCC(c3ccccc3C(C)(C)O)CC2)c(Cl)c1=O",
    "GTPgS - hR2 PAM pEC50": 7.06
  },
  {
    "smiles code": "N#CC1(c2ccccc2)CCN(c2ccn(CC3CC3)c(=O)c2Cl)CC1",
    "GTPgS - hR2 PAM pEC50": 6.34
  },
  {
    "smiles code": "CC(C)CCn1ccc(N2CCC(c3ccc(F)cc3F)CC2)c(Cl)c1=O",
    "GTPgS - hR2 PAM pEC50": 6.91
  },
  {
    "smiles code": "O=c1c(Cl)c(N2CCC(c3ccccc3Cl)CC2)ccn1CC1CC1",
    "GTPgS - hR2 PAM pEC50": 7.00
  },
  {
    "smiles code": "O=c1c(Cl)c(N2CCC(c3ccccc3)CC2)ccn1CC1CC1",
    "GTPgS - hR2 PAM pEC50": 6.53
  },
  {
    "smiles code": "O=c1c(Br)c(N2CCC(c3ccccc3)CC2)ccn1CC1CC1",
    "GTPgS - hR2 PAM pEC50": 6.88
  },
  {
    "smiles code": "CCCCCn1ccc(N2CCC(c3ccccc3)CC2)c(Cl)c1=O",
    "GTPgS - hR2 PAM pEC50": 7.11
  },
  {
    "smiles code": "CC(C)(O)c1ccc(C2CCN(c3ccn(CC4CC4)c(=O)c3Cl)CC2)cc1",
    "GTPgS - hR2 PAM pEC50": 6.57
  },
  {
    "smiles code": "O=c1c(Cl)c(N2CCC(c3ccc(F)cc3F)CC2)ccn1CC1CC1",
    "GTPgS - hR2 PAM pEC50": 6.92
  }
]
